These data points were gathered from the supplement of paper PMC9732359.

Test: protein stability index of a GFP-peptide fusion (yeast GPS) (PSI 1-4); higher = more stable; sorted into four equal gates, so the index is relative within each strain
Settings: ubr1∆
Label rule, in plain words: protein stability index of 3 and up is 1, under 3 is 0.

chain_sequence	label_value
VQKDTAIIRLHPSIYTQ [POP1]	0
LILGLNTSIAQFDIQSP [YML103C/NUP188]	0
QEYLNPVIDTQIANEFN [YDL116W/NUP84]	0
QRDFRKHGAVHMSTYLK [RPL21B]	0
DIEFINSLLTIVWRFIS [RPC34]	0
QLDDEDFDLLNKTLTFE [FAS1]	1
MSGLPPPPPGFEEDSDL [PRP8]	1
HFFQIDGFNKTFHDELN [YML103C/NUP188]	0
DDQCMLITTYSKLSKNI [SIN4]	0
RLISSKMPGGFTITVAR [FAS2]	0
LALERMVPKRSTIITKA [YCS4]	0
DNSEYSRNGDFPRTRFE [RPN10]	1
DRKSIMPLKILLATKQH [CSN12]	0
